assay: physchem; details: jp test solution 2
Counter-ions that a name gives are not always drawn.
measurement_label: solubility at 24 h (mg/mL)

[P] COC(=O)C1=C(C)NC(C)=C(P2(=O)OCCCO2)C1c1ccccc1[N+](=O)[O-] (centres unmarked)
[Q] COC(=O)C1=C(C)NC(C)=C(C(=O)OCCN(C)Cc2ccccc2)C1c1cccc([N+](=O)[O-])c1 (centres unmarked) [nicardipine hydrochloride]
QUERY: Select one: P or Q . Criterion: greater recorded solubility at 24 h. Answer by stating the label of the chosen item.
RESULT: P
(P: 0.0365 mg/mL, Q: 0.0085 mg/mL)
